Entries and their measured melting point follow.

{"columns": ["compound", "melting point"],
 "data": [
  ["O=C1NCCCC1n1nc(-c2c(-c3ccccc3)nn3ccccc23)ccc1=O (centres unmarked)", "140 to 145 °C (dec.)"],
  ["O=c1ccc(-c2c(-c3ccccc3)nn3ccccc23)nn1[C@@H]1CCCC[C@@H]1O (relative stereo)", "195 to 197 °C"],
  ["O=C1CCCCC1n1nc(-c2c(-c3ccccc3)nn3ccccc23)ccc1=O (single isomer, unassigned) [Example 2 (more polar compound)]", "166 to 168 °C"],
  ["O=C(O)[C@@H]1CC[C@H](n2nc(-c3c(-c4ccccc4)nn4ccccc34)ccc2=O)C(=O)C1 (relative stereo)", "186 to 188 °C"],
  ["CCOC(=O)CN(C)C(=O)CC1=C(n2nc(-c3c(-c4ccccc4)nn4ccccc34)ccc2=O)CCCC1", "56 to 60 °C"],
  ["O=C(O)C=C1CCC(n2nc(-c3c(-c4ccccc4)nn4ccccc34)ccc2=O)CC1 (centres unmarked)", "188 to 190 °C"],
  ["O=c1ccc(-c2c(-c3ccccc3)nn3ccccc23)nn1C1CCC2(CC1)OCCO2", "189 to 190 °C"],
  ["O=C(CC1=C(n2nc(-c3c(-c4ccccc4)nn4ccccc34)ccc2=O)CCCC1)N1CCCC1", "178 to 179 °C"],
  ["COc1ccc2c(c1)CC[C@@H](O)[C@@H]2n1nc(-c2c(-c3ccccc3)nn3ccccc23)ccc1=O (relative stereo)", "146 to 150 °C"],
  ["O=C(O)C[C@H]1CCCC[C@H]1n1nc(-c2c(-c3ccccc3)nn3ccccc23)ccc1=O (relative stereo)", "252 to 253 °C"],
  ["O=C(O)[C@H]1CCC(=O)[C@@H](n2nc(-c3c(-c4ccccc4)nn4ccccc34)ccc2=O)C1 (relative stereo) (hydrate or solvate)", "155 to 165 °C"],
  ["CCCn1c(=O)cc(-n2nc(-c3c(-c4ccccc4)nn4ccccc34)ccc2=O)n(CC(=O)OC)c1=O", "143 to 145 °C"],
  ["O=C(O)CC1=C(n2nc(-c3c(-c4ccccc4)nn4ccccc34)ccc2=O)CCCCC1 (hydrate or solvate)", "171 to 172 °C"],
  ["O=c1ccc(-c2c(-c3ccccc3)nn3ccccc23)nn1-c1ccccc1", "170 °C"],
  ["O=C(O)CCCC1=C(n2nc(-c3c(-c4ccccc4)nn4ccccc34)ccc2=O)CCCC1", "145 to 147 °C"],
  ["O=c1ccc(-c2c(-c3ccccc3)nn3ccccc23)nn1C1CCCC(O)C1 (centres unmarked)", "117 to 118 °C"],
  ["C=C1CCCCC1n1nc(-c2c(-c3ccccc3)nn3ccccc23)ccc1=O (centres unmarked)", "229 to 230 °C (dec.)"],
  ["O=c1ccc(-c2c(-c3ccccc3)nn3ccccc23)nn1C1CCCCC1=Cc1nnn[nH]1 (centres unmarked)", "129 to 131 °C"],
  ["O=c1ccc(-c2c(-c3ccccc3)nn3ccccc23)nn1[C@H]1CC[C@@H](C(=O)O)CC1", "296 to 298 °C"],
  ["O=C(O)C1CCCCC1n1nc(-c2c(-c3ccccc3)nn3ccccc23)ccc1=O (centres unmarked)", "164 °C"],
  ["CC(C)(C)OC(=O)/C=C1\\CCCCC1n1nc(-c2c(-c3ccccc3)nn3ccccc23)ccc1=O (centres unmarked)", "110 to 116 °C"],
  ["CCCn1c(-n2nc(-c3c(-c4ccccc4)nn4ccccc34)ccc2=O)cc(=O)n(CC(=O)OC)c1=O", "191 to 195 °C"],
  ["COc1ccccc1-n1nc(-c2c(-c3ccccc3)nn3ccccc23)ccc1=O", "163 °C"],
  ["O=c1ccc(-c2c(-c3ccccc3)nn3ccccc23)nn1C1CCCCC1=NO (centres unmarked) (hydrate or solvate)", "238 to 240 °C"],
  ["CCOC(=O)C[C@H]1CCCC[C@H]1n1nc(-c2c(-c3ccccc3)nn3ccccc23)ccc1=O (relative stereo)", "151 to 152 °C"],
  ["O=C(CC1=C(n2nc(-c3c(-c4ccccc4)nn4ccccc34)ccc2=O)CCCC1)N1CCOCC1", "202 to 204 °C"],
  ["O=C(O)CCCNC(=O)CC1=C(n2nc(-c3c(-c4ccccc4)nn4ccccc34)ccc2=O)CCCC1", "92.5 to 93 °C"],
  ["NN=C1CCCCC1n1nc(-c2c(-c3ccccc3)nn3ccccc23)ccc1=O (centres unmarked)", "161 to 162 °C"],
  ["CN1CCN(C(=O)CC2=C(n3nc(-c4c(-c5ccccc5)nn5ccccc45)ccc3=O)CCCC2)CC1.Cl (hydrate or solvate)", "188 to 191 °C"]
]}
